Just for reference, patent US20250026850A1 is where these values come from.

testedOn: T1, cynomolgus macaque (Macaca fascicularis) CD39 on cells (cynomolgus macaque (Macaca fascicularis), UniProt P49961 7-510 (human entry))
T1 construct: CHO cells engineered to express cyno CD39, or primary cyno B cells and monocytes; also called cyno CD39; cCD39
T1 chain: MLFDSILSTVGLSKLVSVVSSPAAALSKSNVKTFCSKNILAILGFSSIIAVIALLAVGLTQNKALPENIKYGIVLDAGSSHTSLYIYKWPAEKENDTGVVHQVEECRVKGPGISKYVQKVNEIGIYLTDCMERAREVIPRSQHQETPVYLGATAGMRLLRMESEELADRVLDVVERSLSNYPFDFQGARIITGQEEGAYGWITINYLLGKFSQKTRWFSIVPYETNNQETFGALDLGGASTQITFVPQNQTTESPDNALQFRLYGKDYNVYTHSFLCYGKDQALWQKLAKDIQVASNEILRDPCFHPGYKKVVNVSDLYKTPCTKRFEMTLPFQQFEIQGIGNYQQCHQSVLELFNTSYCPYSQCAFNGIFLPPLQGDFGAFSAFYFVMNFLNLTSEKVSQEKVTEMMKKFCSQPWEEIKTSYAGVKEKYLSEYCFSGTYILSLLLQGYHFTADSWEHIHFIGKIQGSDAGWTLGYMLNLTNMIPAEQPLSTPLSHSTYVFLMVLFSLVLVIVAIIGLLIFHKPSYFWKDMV
testDescription: flow cytometry, 100 nM IgG, cCD39-CHO cells; MFI ratio to parental CHO
Experimental: 100 nanomolar IgGs (each antibody is indicated as a unique clone number in the FIG.) were incubated at […] 30 minutes on ice in phosphate buffered saline (PBS) with parental CHO cells or CHO cells engineered to express either human or cynomolgus macaque (Macaca fascicularis) CD39 (CHO CD39 cells). Cells were then washed with ice cold PBS and incubated with a fluorescently labeled goat-anti-human IgG for 20 minutes on ice. […]
Kindly state Cell Binding (FOB) for each of the entries shown.
# value in FOB; strip the unit string

Task: Give me measured Cell Binding (FOB), please, for this binder: 31430 (antibody, V domains shown) VH: QVQLVQSGAEVKKPGASVKVSCKASGYTFKSYEMHWVRQAPGQGLEWMGRINPSGGSTWYAQKFQGRVTMTRDTSTSTVYMELSSLRSEDTAVYYCARGKREGGTEYLRHWGQGTLVTVSS VL: EIVLTQSPGTLSLSPGERATLSCEASQSVSYSYLAWYQQKPGQAPRLLIYGASSRANGIPDRFSGSGSGTDFTLTISRLEPEDFAVYYCQQYHSALTFGGGTKVEIKR
Result: 3570

Task: For 31393 (antibody, V domains shown) VH: QVQLVQSGAEVKKPGSSVKVSCKASGGTFESYGISWVRQAPGQGLEWMGSIIPEFGIANYAQKFQGRVTITADESTSTTYMELSSLRSEDTAVYYCARESGGYRDHRLDVWGQGTMVTVSS VL: EIVMTQSPATLSVSPGERATLSCRASQSVGSNLAWYQQKPGQAPRLLIYGASTRATGIPARFSGSGSGTEFTLTISSLQSEDFAVYYCQQYLLWPLTFGGGTKVEIKR , write its Cell Binding (FOB).
Result: 2960

Task: Read the entry 31873 (antibody, V domains shown) VH: QVQLVQSGAEVKKPGSSVKVSCKASGGTFSKYGISWVRQAPGQGLEWMGSIIPEFGIANYAQKFQGRVTITADESTSTAYMELSSLRSEDTAVYYCARESGGYRDHRLGVWGQGTMVTVSS VL: EIVMTQSPATLSVSPGERATLSCRASQSVGSNLAWYQQKPGQAPRLLIYGASTRASGIPARFSGSGSGTEFTLTISSLQSEDFAVYYCQQYLLWPLTFGGGTKVEIKR and write its reported Cell Binding (FOB).
Result: 5080

Task: Let me know recorded Cell Binding (FOB) for 31431 (antibody, V domains shown) VH: QVQLVQSGAEVKKPGASVKVSCKASGYTFTSYQMHWVRQAPGQGLEWMGRINPSGGSTWYAQKFQGRVTMTRDTSTSTVYMELSSLRSEDTAVYYCARGKREGGTEYLRHWGQGTLVTVSS VL: EIVLTQSPGTLSLSPGERATLSCRASQSVASSYLAWYQQKPGQAPRLLIYGASNRHTGIPDRFSGSGSGTDFTLTISRLEPEDFAVYYCQQYHGGITFGGGTKVEIK , thanks.
Result: 3530

Task: Look up and state reported Cell Binding (FOB) for 27597 (antibody, V domains shown) VH: QVQLVQSGAEVKKPGSSVKVSCKASGGTFSSYAISWVRQAPGQGLEWMGSIIPIFGTANYAQKFQGRVTITADESTSTAYMELSSLRSEDTAVYYCAREGRGYDSSRYYKFWFDPWGQGTLVTVSS VL: EIVLTQSPATLSLSPGERATLSCRASQSVSSYLAWYQQKPGQAPRLLIYDASNRATGIPARFSGSGSGTDFTLTISSLEPEDFAVYYCQQFVLWPRTFGGGTKVEIKR
Result: 908

Task: Return Cell Binding (FOB) (reported value) for this binder: 29871 (antibody, V domains shown) VH: QVQLVQSGAEVKKPGASVKVSCKASGYTFQSYYMHWVRQAPGQGLEWMGKINPSGGSTWYAQKFQGRVTMTRDTSTSTVYMELSSLRSEDTAVYYCARGKREGGTEYLRHWGQGTLVTVSS VL: EIVLTQSPGTLSLSPGERATLSCRASQSVSSSYLAWYQQKPGQAPRLLIYGASSRATGIPDRFSGSGSGTDFTLTISRLEPEDFAVYYCQQYHSYITFGGGTKVEIK
Result: 3350

Task: Please give the documented Cell Binding (FOB) of 31429 (antibody, V domains shown) VH: QVQLVQSGAEVKKPGASVKVSCKASGYTFVSYFMHWVRQAPGQGLEWMGSINPRGGSTSYAQKFQGRVTMTRDTSTSTVYMELSSLRSEDTAVYYCARGKREGGTEYLRHWGQGTLVTVSS VL: EIVLTQSPGTLSLSPGERATLSCRASQYVSSSYLAWYQQKPGQAPRLLIYYASNRATGIPDRFSGSGSGTDFTLTISRLEPEDFAVYYCQQYHSGITFGGGTKVEIK
Result: 3800

Task: Fill in Cell Binding (FOB) for record 31421 (antibody, V domains shown) VH: QVQLVQSGAEVKKPGASVKVSCKASGYTFFSYYMYWVRQAPGQGLEWMGVINPLGGGTSYAQKFQGRVTMTRDTSTSTVYMELSSLRSEDTAVYYCARGKREGGTEYLRHWGQGTLVTVSS VL: EIVLTQSPGTLSLSPGERATLSCKASESVSSSYLAWYQQKPGQAPRLLIYYASSRATGIPDRFSGSGSGTDFTLTISRLEPEDFAVYYCQQYHRRITFGGGTKVEIK
Result: 3050

Task: State its Cell Binding (FOB) for this binder: 27549 (antibody, V domains shown) VH: QVQLVESGGGVVQPGRSLRLSCAASGFTFSSYGMNWVRQAPGKGLEWVAVIWYDGSNKYYADSVKGRFTISRDNSKNTLYLQMNSLRAEDTAVYYCARDLGGYSYGEPYYYYYGMDVWGQGTTVTVSS VL: EIVLTQSPGTLSLSPGERATLSCRASQSVSSDYLAWYQQKPGQAPRLLIYGASSRATGIPDRFSGSGSGTDFTLTISRLEPEDFAVYYCQQAHSSPYTFGGGTKVEIKR
Result: 566

Task: Note down Cell Binding (FOB) recorded for 31418 (antibody, V domains shown) VH: QVQLVQSGAEVKKPGASVKVSCKASGYTFKSYEMHWVRQAPGQGLEWMGRINPSGGSTWYAQKFQGRVTMTRDTSTSTVYMELSSLRSEDTAVYYCARGKREGGTEYLRHWGQGTLVTVSS VL: EIVLTQSPGTLSLSPGERATLSCRASQSVSSSYLAWYQQKPGQAPRLLIYGASSRATGIPDRFSGSGSGTDFTLTISRLEPEDFAVYYCQQYYFYITFGGGTKVEIKR
Result: 3180
